Measured hERG current change (%, negative = inhibition) at 1uM of individual entries
- MEASURED_ON: human ether-à-go-go-related gene (hERG) potassium channel (human)
- Sequence (Q12809 whole entry, looked up): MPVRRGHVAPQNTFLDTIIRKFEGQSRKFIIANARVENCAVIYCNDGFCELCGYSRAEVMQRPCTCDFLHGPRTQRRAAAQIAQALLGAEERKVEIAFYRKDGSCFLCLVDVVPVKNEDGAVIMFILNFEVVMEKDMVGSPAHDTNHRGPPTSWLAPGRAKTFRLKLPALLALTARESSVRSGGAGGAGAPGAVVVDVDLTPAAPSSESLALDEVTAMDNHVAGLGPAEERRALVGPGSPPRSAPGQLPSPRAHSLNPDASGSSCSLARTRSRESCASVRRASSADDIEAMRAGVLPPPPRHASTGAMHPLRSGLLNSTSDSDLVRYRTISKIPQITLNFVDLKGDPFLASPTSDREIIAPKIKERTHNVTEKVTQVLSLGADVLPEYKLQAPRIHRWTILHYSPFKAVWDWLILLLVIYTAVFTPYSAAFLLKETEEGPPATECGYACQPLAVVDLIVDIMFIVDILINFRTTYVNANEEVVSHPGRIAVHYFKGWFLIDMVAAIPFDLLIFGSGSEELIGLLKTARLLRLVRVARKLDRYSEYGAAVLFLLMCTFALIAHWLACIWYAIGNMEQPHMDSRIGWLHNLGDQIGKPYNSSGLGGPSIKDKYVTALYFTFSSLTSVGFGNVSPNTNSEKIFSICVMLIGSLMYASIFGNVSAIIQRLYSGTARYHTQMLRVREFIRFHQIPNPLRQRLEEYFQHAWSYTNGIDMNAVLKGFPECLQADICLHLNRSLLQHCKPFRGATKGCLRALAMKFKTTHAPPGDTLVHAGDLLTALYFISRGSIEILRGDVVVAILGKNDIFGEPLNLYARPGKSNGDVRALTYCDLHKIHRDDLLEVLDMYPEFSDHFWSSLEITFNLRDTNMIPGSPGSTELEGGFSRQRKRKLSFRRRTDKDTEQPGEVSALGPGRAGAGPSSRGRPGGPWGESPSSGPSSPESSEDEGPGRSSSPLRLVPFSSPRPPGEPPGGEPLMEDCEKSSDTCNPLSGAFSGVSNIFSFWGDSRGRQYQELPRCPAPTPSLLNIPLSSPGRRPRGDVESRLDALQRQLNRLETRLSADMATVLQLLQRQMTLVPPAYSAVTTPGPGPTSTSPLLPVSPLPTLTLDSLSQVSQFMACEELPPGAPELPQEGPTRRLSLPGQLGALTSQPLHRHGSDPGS
- ASSAY_INFO: primary screen, population patch clamp on CHO cells stably expressing hERG; higher = less effect of the substance
- Description: Briefly, Chinese hamster ovary (CHO) cells stably expressing the hERG channel were dislodged from tissue culture flasks and dispensed into PPC plates. […] Small molecule effects on hERG current density were quantified by […].
Among all 310,000 compounds or so, about 2,200 (0.71%) showed an effect of 50% or more. The effect is printed as a negative number. For the sample, strong results were picked, then their nearest neighbours and some compounds at random.
Number only, in %; omit the unit.

Would you kindly share the measured hERG current change (%, negative = inhibition) at 1uM for `CCC(=O)NC(=S)NNC(=O)c1ccc([N+](=O)[O-])cc1` ? 8.99

Would you kindly share the measured hERG current change (%, negative = inhibition) at 1uM for `COC(=O)c1[nH]c2ccc(Cl)cc2c1NC(=O)CCN1CCOCC1` ? 9.37

Further cases:
Would you kindly share the measured hERG current change (%, negative = inhibition) at 1uM for `COC(=O)c1[nH]c2ccc(Cl)cc2c1NC(=O)CN1CCC(C(N)=O)CC1` ? 10.6

Would you kindly share the measured hERG current change (%, negative = inhibition) at 1uM for CCCCCC(=O)N1CCN(CCN=CC2=C(O)CC(c3cccs3)CC2=O)CC1 (stereo not drawn) ? -109

Would you kindly share the measured hERG current change (%, negative = inhibition) at 1uM for `Cc1cc(C)n(-c2nc(-c3ccccc3)cs2)n1` ? 1.91

Would you kindly share the measured hERG current change (%, negative = inhibition) at 1uM for `O=c1c2ccccc2nc2n1CC/C2=C\N1CCN(c2ccc([N+](=O)[O-])cc2)CC1` ? -62.1

Would you kindly share the measured hERG current change (%, negative = inhibition) at 1uM for COC(=O)c1[nH]c2ccc(Br)cc2c1NC(=O)CN1CCCCC1CCO (stereo not drawn) ? 5.4

Would you kindly share the measured hERG current change (%, negative = inhibition) at 1uM for CCOC(=O)c1[nH]c2ccc(OC)cc2c1NC(=O)CCN1CCCC(C)C1 (stereo not drawn) ? -3.69

###

- MEASURED_ON: human ether-à-go-go-related gene (hERG) potassium channel (human)
- ASSAY_INFO: primary screen, population patch clamp on CHO cells stably expressing hERG; higher = less effect of the substance
In all, about 310,000 compounds went through this assay and about 2,200 (0.71%) showed an effect of 50% or more. The effect is printed as a negative number. This excerpt belongs to a sample that is enriched for strong results.
Measured hERG current change (%, negative = inhibition) at 1uM of individual entries
Number only, in %; omit the unit.

Consider the worked cases shown below.
Give the reported hERG current change (%, negative = inhibition) at 1uM for `CCN(CC)CCN(Cc1cc2ccc(C)cc2[nH]c1=O)C(=O)Nc1ccc(Cl)cc1` (system: human ether-à-go-go-related gene (hERG) potassium channel (human)). -78.4

Give the reported hERG current change (%, negative = inhibition) at 1uM for Cc1ccc2sc(NNC(=O)C3COc4ccccc4O3)nc2c1C (stereo not shown) (system: human ether-à-go-go-related gene (hERG) potassium channel (human)). 9.9

Give the reported hERG current change (%, negative = inhibition) at 1uM for CCOC(=O)C1CCN(CC(O)COCc2ccc3c(c2)OCO3)CC1.Cl (stereo not shown) (system: human ether-à-go-go-related gene (hERG) potassium channel (human)). 1.96

Further cases:
Give the reported hERG current change (%, negative = inhibition) at 1uM for CCOC(=O)c1ccc(S(=O)(=O)N2CCN(CC(O)COc3cccc(C(C)=O)c3)CC2)cc1.O=C(O)C(=O)O (stereo not shown) (system: human ether-à-go-go-related gene (hERG) potassium channel (human)). 10

Give the reported hERG current change (%, negative = inhibition) at 1uM for `O=C(NCc1ccc2c(c1)OCO2)c1ccc(S(=O)(=O)C(F)F)cc1` (system: human ether-à-go-go-related gene (hERG) potassium channel (human)). -0.408

Give the reported hERG current change (%, negative = inhibition) at 1uM for CCOC(=O)C1CCN(CC(O)COCc2ccc(Cl)cc2)CC1.Cl (stereo not shown) (system: human ether-à-go-go-related gene (hERG) potassium channel (human)). -58.6

Give the reported hERG current change (%, negative = inhibition) at 1uM for CC(=O)c1cccc(OCC(O)CN2CC=C(c3ccccc3)CC2)c1.O=C(O)C(=O)O (stereo not shown) (system: human ether-à-go-go-related gene (hERG) potassium channel (human)). -50

Give the reported hERG current change (%, negative = inhibition) at 1uM for `Cc1ccc2[nH]c(=O)c(CN(CCCN(C)C)C(=O)Nc3ccc(F)cc3)cc2c1` (system: human ether-à-go-go-related gene (hERG) potassium channel (human)). -37

Give the reported hERG current change (%, negative = inhibition) at 1uM for `Cc1ccc(NC(=O)CSc2nnc(Cn3cnc4ccccc43)o2)c(C)c1` (system: human ether-à-go-go-related gene (hERG) potassium channel (human)). 20.5

Give the reported hERG current change (%, negative = inhibition) at 1uM for `Cc1cc(Br)cc2c1N(C)C(=O)C2(c1ccc(O)cc1)c1ccc(O)cc1` (system: human ether-à-go-go-related gene (hERG) potassium channel (human)). 12

Give the reported hERG current change (%, negative = inhibition) at 1uM for `CCOC(=O)COc1ccc(S(=O)(=O)NCc2ccncc2)cc1` (system: human ether-à-go-go-related gene (hERG) potassium channel (human)). 8.78

Give the reported hERG current change (%, negative = inhibition) at 1uM for `CCCC(=O)Nc1nc2ccc(NC(=O)c3ccccc3F)cc2s1` (system: human ether-à-go-go-related gene (hERG) potassium channel (human)). 14.1

Give the reported hERG current change (%, negative = inhibition) at 1uM for Cl.OC(COCc1ccccc1)CN1CCCC1 (stereo not shown) (system: human ether-à-go-go-related gene (hERG) potassium channel (human)). 1.21

Give the reported hERG current change (%, negative = inhibition) at 1uM for `CC(=O)NCCC(=O)Nc1nc2ccc(Oc3ccccc3)cc2s1` (system: human ether-à-go-go-related gene (hERG) potassium channel (human)). 2.19
